// values below are reported remaining at 1 h, 100 µM
Experiment: Enzymatic stability assessed as porcine pepsin-mediated compound hydrolysis by measuring parent compound remaining at 100 uM incubated for 1 hr by LC-MS/MS analysis
Assay type: ADME, Sus scrofa
Conditions: pig, read-out: Stabilty
Numbered stars: 1 amine (or outer) side, 2 acyl side, 3 side chain; on linkers, the order of the positions; unused ones are H or OH. Bridge positions count the residues as written; N and C are the ends. Square brackets hold non-standard residues; d marks the D form. Peptide text beside a SMILES is read from it. * marks the point of attachment. Trp(5-F) = N[C@@H](Cc1c[nH]c2ccc(F)cc12)C(=O)O; X1 = O=C(CCSCc1cccc(CSCCN[*:1])c1)[*:2]; mXylylene = c1cc(C[*:1])cc(C[*:2])c1; αMeP = C[C@@]1(C(=O)O)CCCN1; X2 = COCCOCCOCCOCCC(=O)*; Mpa = O=C(O)CCS
endpoint-label: remaining at 1 h, 100 µM (%)

INSERT INTO assay_data (compound, endpoint_label, recorded_number) VALUES
  ('C[C@@]12CCCN1C(=O)[C@H](Cc1ccc(O)cc1)NC(=O)[C@H](Cc1cnc[nH]1)NC(=O)[C@H](CC(=O)O)NC(=O)[C@H](Cc1c[nH]c3ccc(F)cc13)NC(=O)[C@H](Cc1c[nH]c3ccc(F)cc13)NC(=O)CNC(=O)[C@H](CCCCN)NC(=O)CCSCc1cccc(c1)CSC[C@@H](C(N)=O)NC2=O ([Mpa]KG[Trp(5-F)][Trp(5-F)]DHY[αMeP]C-NH2; linker 1-10 via mXylylene)', 'remaining at 1 h, 100 µM', 94),
  ('CC(C)[C@H]1NC(=O)[C@H](CCCCN)NC(=O)CCSCc2cccc(c2)CSCCNC(=O)[C@]2(C)CCCN2C(=O)[C@H](Cc2ccc(O)cc2)NC(=O)[C@H](Cc2cnc[nH]2)NC(=O)[C@H](CC(=O)O)NC(=O)[C@H](Cc2c[nH]c3ccc(F)cc23)NC(=O)[C@H](Cc2c[nH]c3ccc(F)cc23)NC1=O', 'remaining at 1 h, 100 µM', 100),
  ('COc1ccc(C[C@@H]2NC(=O)[C@H]([C@@H](C)O)NC(=O)[C@@H]3CCC(=O)NCc4cccc(c4)C[C@H](NC(=O)[C@@H](C)NC(=O)[C@H](C)NC(=O)CCSCc4cccc(c4)CSCCNC(=O)[C@]4(C)CCCN4C2=O)C(=O)N[C@@H](Cc2c[nH]c4ccc(F)cc24)C(=O)N3)cc1', 'remaining at 1 h, 100 µM', 98.2),
  ('C[C@@]12CCCN1C(=O)[C@H](Cc1ccc(O)cc1)NC(=O)[C@H](Cc1cnc[nH]1)NC(=O)[C@H](CC(=O)O)NC(=O)[C@H](Cc1c[nH]c3ccc(F)cc13)NC(=O)[C@H](Cc1c[nH]c3ccc(F)cc13)NC(=O)CNC(=O)[C@H](CCCCN)NC(=O)CCSCc1cccc(c1)CSCCNC2=O (cyclo(DHY[αMeP][X1]KG[Trp(5-F)][Trp(5-F)]))', 'remaining at 1 h, 100 µM', 99.1),
  ('C[C@H]1NC(=O)[C@H](CCCCN)NC(=O)CCSCc2cccc(c2)CSC[C@@H](C(N)=O)NC(=O)[C@]2(C)CCCN2C(=O)[C@H](Cc2ccc(O)cc2)NC(=O)[C@H]([C@@H](C)O)NC(=O)[C@@H]2C[C@H](F)CN2C(=O)[C@H](Cc2c[nH]c3ccc(F)cc23)NC(=O)[C@H](Cc2c[nH]c3ccc(F)cc23)NC1=O', 'remaining at 1 h, 100 µM', 98.1),
  ('COCCOCCOCCOCCC(=O)NCCCC[C@@H]1NC(=O)CCSCc2cccc(c2)CSC[C@@H](C(N)=O)NC(=O)[C@]2(C)CCCN2C(=O)[C@H](Cc2ccc(O)cc2)NC(=O)[C@H](Cc2cnc[nH]2)NC(=O)[C@H](CC(=O)O)NC(=O)[C@H](Cc2c[nH]c3ccc(F)cc23)NC(=O)[C@H](Cc2c[nH]c3ccc(F)cc23)NC(=O)CNC1=O ([Mpa]K(X2)G[Trp(5-F)][Trp(5-F)]DHY[αMeP]C-NH2; linker 1-10 via mXylylene)', 'remaining at 1 h, 100 µM', 98.6);
